Experimental details: Bioavailability in rat 10 mg/kg, po
Assay type: ADME, organism-based
Experimental context: in vivo
Property name: bioavailability (%)
// note: answer is a bare numeric in %

Req: I would be grateful if you could share the reported bioavailability for COc1ccc(C2CN3CCCC3c3cc(OCCCN4CCCCC4)ccc32)cc1 (racemic) .
Resp: 16

* * *

Assay system Histamine H3 receptor (Homo sapiens, UniProt Q9Y5N1); read-out recorded as Ki.
Please reply with the bare figure in nM and do not write the unit itself.

Solved cases below.
Clc1ccccc1C1CN2CCCC2c2cc(OCCCN3CCCCC3)ccc21 (racemic) = 2.3
C#Cc1ccc(C2CN3CCCC3c3cc(OCCCN4CCCCC4)ccc32)cc1 (racemic) = 4
CSc1ccc(C2CN3CCCC3c3cc(OCCCN4CCCCC4)ccc32)cc1 (racemic) = 2.5
Clc1cccc(C2CN3CCCC3c3cc(OCCCN4CCCCC4)ccc32)c1 (racemic) = 1.2
Oc1cccc(C2CN3CCCC3c3cc(OCCCN4CCCCC4)ccc32)c1 (racemic) = 0.7
Oc1ccccc1C1CN2CCCC2c2cc(OCCCN3CCCCC3)ccc21 (racemic) = 3.7
Cc1ccc(C2CN3CCCC3c3cc(OCCCN4CCCCC4)ccc32)cc1 (racemic) = 2
Oc1ccc(C2CN3CCCC3c3cc(OCCCN4CCCCC4)ccc32)cc1 (racemic) = 1.7

Req: Name the reported Ki value associated with the compound CN(C)c1ccc(C2CN3CCCC3c3cc(OCCCN4CCCCC4)ccc32)cc1 (racemic)
Resp: 1.6

* * *

Target under test: Sodium-dependent serotonin transporter (Rattus norvegicus, UniProt P31652)
Sequence (P31652 whole entry): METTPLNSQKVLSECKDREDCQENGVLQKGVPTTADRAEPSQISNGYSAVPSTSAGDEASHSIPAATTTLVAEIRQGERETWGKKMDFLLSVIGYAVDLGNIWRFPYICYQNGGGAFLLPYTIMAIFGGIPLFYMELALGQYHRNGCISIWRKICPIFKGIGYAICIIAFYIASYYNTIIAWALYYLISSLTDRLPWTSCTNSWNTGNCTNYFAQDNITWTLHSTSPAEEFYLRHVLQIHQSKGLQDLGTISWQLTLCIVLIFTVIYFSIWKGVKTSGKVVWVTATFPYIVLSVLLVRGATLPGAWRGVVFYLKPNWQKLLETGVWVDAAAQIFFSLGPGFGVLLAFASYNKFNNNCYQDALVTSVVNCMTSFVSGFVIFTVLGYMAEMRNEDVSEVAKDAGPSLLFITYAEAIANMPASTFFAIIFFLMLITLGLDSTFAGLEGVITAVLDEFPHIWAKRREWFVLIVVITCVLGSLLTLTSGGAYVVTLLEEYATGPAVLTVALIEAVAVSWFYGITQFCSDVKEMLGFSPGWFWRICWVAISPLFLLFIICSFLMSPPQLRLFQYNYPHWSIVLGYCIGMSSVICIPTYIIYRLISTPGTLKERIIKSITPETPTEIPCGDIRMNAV
// returns No unless Ki is strictly below 4 nM, in which case Yes

Look over these answered cases.
Oc1cccc(C2CN3CCCC3c3cc(OCCCN4CCCCC4)ccc32)c1 (racemic) = Yes
N#Cc1ccc(C2CN3CCCC3c3cc(OCCCN4CCCCC4)ccc32)cc1 (racemic) = No
C#Cc1cccc(C2CN3CCCC3c3cc(OCCCN4CCCCC4)ccc32)c1 (racemic) = No
CSc1ccc(C2CN3CCCC3c3cc(OCCCN4CCCCC4)ccc32)cc1 (racemic) = Yes

Req: Hello, is Ki of the following compound strictly smaller than 4 nM? Fc1ccc(C2CN3CCCC3c3cc(OCCCN4CCCCC4)ccc32)cc1 (racemic)
Resp: Yes

Req: Subsequent entry: Oc1ccc(C2CN3CCCC3c3cc(OCCCN4CCCCC4)ccc32)cc1 (racemic)
Resp: No

Req: Consider next the compound COc1ccccc1C1CN2CCCC2c2cc(OCCCN3CCCCC3)ccc21 (racemic) in the same way.
Resp: No

* * *

Experimental details: Half life in rat at 1 mg/kg, iv or 10 mg/kg, po
Assay type: ADME, organism-based
Experimental context: in vivo
Property name: half-life
State the value with its unit after it.

Req: Which half-life is reported for this compound? COc1ccc(C2CN3CCCC3c3cc(OCCCN4CCCCC4)ccc32)cc1 (racemic)
Resp: 15.7 h

* * *

Histamine H3 receptor (Homo sapiens, UniProt Q9Y5N1): recorded Ki for assorted compounds
Sequence (Q9Y5N1 whole entry): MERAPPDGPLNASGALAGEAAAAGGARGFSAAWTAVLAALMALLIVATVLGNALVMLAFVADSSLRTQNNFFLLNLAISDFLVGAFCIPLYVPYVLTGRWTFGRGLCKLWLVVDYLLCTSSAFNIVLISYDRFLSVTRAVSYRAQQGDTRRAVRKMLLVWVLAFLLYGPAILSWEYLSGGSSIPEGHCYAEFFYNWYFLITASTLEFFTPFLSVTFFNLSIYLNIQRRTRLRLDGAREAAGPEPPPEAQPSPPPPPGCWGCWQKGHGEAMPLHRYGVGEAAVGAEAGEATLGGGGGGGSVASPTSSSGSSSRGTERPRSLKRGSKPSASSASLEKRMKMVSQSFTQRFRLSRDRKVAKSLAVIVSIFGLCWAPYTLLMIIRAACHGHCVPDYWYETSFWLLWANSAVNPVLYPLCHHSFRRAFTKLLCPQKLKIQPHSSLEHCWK
Provide only the numeric value, understood in nM.

Previously resolved entries follow.
FC(F)(F)c1ccc(C2CN3CCCC3c3cc(OCCCN4CCCCC4)ccc32)cc1 (racemic) = 4.7
FC(F)(F)Oc1ccc(C2CN3CCCC3c3cc(OCCCN4CCCCC4)ccc32)cc1 (racemic) = 4
COc1cccc(C2CN3CCCC3c3cc(OCCCN4CCCCC4)ccc32)c1 (racemic) = 1.7
Clc1ccc(C2CN3CCCC3c3cc(OCCCN4CCCCC4)ccc32)cc1 (racemic) = 2.2

Req: Value lookup for Ki; key = c1ccc(C2CN3CCCC3c3cc(OCCCN4CCCCC4)ccc32)cc1 (racemic)
Resp: 0.9

The origin of these recorded values is ChEMBL document CHEMBL1139168.
